# System: RAW-Dual (murine macrophage reporter line)
# experiment: viability score (confluency relative to resting cells, overnight) (fraction); higher = more viable, active = viable (0.7 or more)
# particulars: modulator concentration 10 µM
readoutKind: viability score

Cc1ccc(-c2nc(O)nc3ccccc23)cc1 ... 0.931
N#Cc1c(NC(=O)c2cccc3ccccc23)sc2c1CCCC2 ... 0.879
CCCNS(=O)(=O)Nc1ncnc(OCCOc2ncc(Br)cn2)c1-c1ccc(Br)cc1 ... 0.953
CC1CCc2nnc(OCC3CCCN3C)cc2C1 (stereo unspecified) ... 0.996
CCCCCCOc1ccc(N2C(=O)CC(SC(=Nc3ccccc3)Nc3ccccc3)C2=O)cc1 (stereo unspecified) ... 0.996
COC(=O)C(NC(=O)C(C)(C)C)C12CC3CC(CC(C3)C1)C2 (stereo unspecified) ... 1.02
N#CC[C@H](C1CCCC1)n1cc(-c2ncnc3[nH]ccc23)cn1 ... 0.979
c1ccc(CCn2c3ccccc3c3nnc(SCCN4CCCCC4)nc32)cc1 ... 1.01
CCN(CC)c1ccc(C=C(C#N)c2n[nH]c(N)c2C#N)c(OC)c1 ... 1.02
c1ccc(CNc2nc(N3CCOCC3)nc(N3CCOCC3)n2)cc1 ... 0.991
CCc1c(C)c2ccc(OCC(C)=O)c(C)c2oc1=O ... 0.991
